tested on: UO-31 renal; assay: NCI-60 one-dose screen, 48 h (100 = growth as untreated, 0 = no growth, -100 = all killed); conditions: 10 µM unless noted
The panel holds about 83,000 compounds, 20% with a hit somewhere; the sample as a whole holds those more often.
Measured growth values are reported for all entries that follow.
The response must be a number in % with no trailing unit.

COc1ccc(OC)c2c1[nH]c(=O)c1c3ccccc3cn21; -81.4
CC(C)[C@]12O[C@H]1[C@@H]1O[C@]13[C@]1(O[C@H]1C[C@H]1C4=C(CC[C@@]13C)C(=O)OC4)[C@@H]2OC(=O)CN(C)C; -5.89

Q: Give its growth value. Item: NCCCc1nnc(CCC(=O)c2nc3ccccc3[nH]2)o1
Result: 91.8

---

System: MALME-3M melanoma
Test: NCI-60 one-dose screen, 48 h
Details: 10 µM unless noted
Procedure: Cells are grown in 96 well plates and exposed to the test compound for 48 hours. Compounds are tested at a single concentration, which is 10^-5 M for most compounds. The reported endpoint is percent growth (GI% or GIPRCNT), where numbers from 0 - 100% represent growth inhibition, and numbers from -100% - 0 represent cell death. For example, a value of 40 represents 60% growth inhibition. A value of 0 means no net growth occurred over the course of the experiment. […]
Compounds without any hit were thinned out: in the full panel of roughly 83,000, 20% have a hit. The source made the active and inactive calls. The calls were made as follows: active = growth percent below 10; inactive = the rest.
Entry note: the call must match one of active, inactive

Solved entries:
CC(C)(C)c1ccc(C(O)CCCN2CCC(C(O)(c3ccccc3)c3ccccc3)CC2)cc1 (stereo not given); active
COc1cc(C2CC(c3ccc(C)cc3)=NN2C(C)=O)ccc1Oc1ccnc2cc(Cl)ccc12 (stereo not given); inactive
Cc1ccccc1-c1cc(Cc2ccccc2O)c(=O)[nH]n1; inactive
Cc1c(N(C)CS(=O)(=O)O)c(=O)n(-c2ccccc2)n1C; inactive
O=C(Nc1ccc(Nc2ccncc2)cc1)c1ccc(Nc2ccnc3ccc([N+](=O)[O-])cc23)cc1[N+](=O)[O-]; active
COc1ccc(-c2cncn2-c2ccc(-c3nc4cc(OC)c(OC)c(OC)c4s3)cc2)cc1N; inactive

Here's the next entry for you.
Q: Fill in: this test's call for O=[N+]([O-])c1ccc2c(c1)S(=O)c1cc([N+](=O)[O-])ccc1N2 is ___
Result: inactive

---

test system: UACC-257 melanoma; assay: NCI-60 one-dose screen, 48 h; conditions: 10 µM unless noted
Compounds without any hit were thinned out: in the full panel of roughly 83,000, 20% have a hit. The source made the active and inactive calls. Rule for the calls: active = growth percent below 10; inactive = the rest.
Please reply with one of these outcomes: active, inactive

CCSc1nnc2n(Cc3ccccc3)c(=O)c3c(C)c(C(N)=O)sc3n12; inactive

Q: Please indicate how the test categorized COc1ccccc1[C@H]1c2[nH]c3ccccc3c2C[C@H]2C(=O)N(CCCCCCC(=O)NO)CC(=O)N12 .
Result: inactive

Q: Write down the call the test reported for this compound. Item: COc1cc(C2=NN(C(C)=O)C(c3ccc(OC(C)=O)cc3OC(C)=O)O2)c(OC(C)=O)c2ccccc12 (centres undefined)
Result: active

Q: Hi team, can someone confirm the assay call for COc1ccc(-c2nn(-c3ccccc3)cc2/C=C2\SC(=S)N(CCc3ccc(O)cc3)C2=O)cc1 ?
Result: inactive

Q: Just curious, what result did O=C(Nc1ccc(C2=NCCCN2)cc1)Nc1ccc(C2=NCCCN2)cc1 get here?
Result: inactive

Q: Assay result, entry CC/C(=C\c1ccc(N(C)C)cc1)c1nc2ccccc2c(=O)[nH]1 — outcome?
Result: inactive

Q: Which outcome was assigned to COc1ccc2nc3cc(Cl)ccc3c(Nc3cc(C(C)C)c(O)cc3C)c2c1 in this test?
Result: inactive

Q: Name the outcome recorded for Cc1cc2c(cc1[N+](=O)[O-])NC(CNC(C)C)CC2 (centres undefined) in the assay.
Result: inactive

Q: I would be grateful if you could indicate the recorded call for Cc1cc(Cl)ccc1Nc1nc(C(F)(F)F)ccc1C(=O)NCC(=O)N/N=C/c1c(Cl)cccc1Cl .
Result: inactive
